Where these numbers come from: patent US10131652B2

Could you please report measured Plant response rating, Chickweed for the items listed next?
Tested on: chickweed (common chickweed, Stellaria media)
Test: Test D postemergence plant response
Assay type: in vivo
Conditions: 62 g ai/ha, scale 0 to 100, 0 no effect, 100 complete control
Answer using only a numeral; do not append any unit.

query: Which Plant response rating, Chickweed value belongs to Fc1cccc(Oc2ncc(Cl)cn2)c1-c1cc(C2CC2)on1 [Compound 130] ?
result: 80

query: What Plant response rating, Chickweed value was documented for this compound, Clc1cnc(Oc2ccccc2-c2ccon2)nc1 [Compound 185] ?
result: 5

query: Could you share which Plant response rating, Chickweed value was measured for Cn1nnc(-c2ccccc2Oc2ncc(Br)cn2)n1 [Compound 50] ?
result: 5

query: Endpoint output: Plant response rating, Chickweed of FC(F)c1cc(-c2c(Cl)cccc2Oc2ncc(Cl)cn2)no1 [Compound 179] . Value?
result: 95

query: Give its Plant response rating, Chickweed value. Item: Cc1cc(-c2ccccc2Oc2ncc(Cl)cn2)no1 [Compound 153]
result: 20

###

Test system: kochia (Kochia scoparia)
Assay: Test D postemergence plant response
Format: in vivo
Details: 31 g ai/ha, scale 0 to 100 (0 no effect, 100 complete control)
measured quantity: Kochia plant response rating
Could you keep your reply to the number by itself?

query: Tell me the measured Kochia plant response rating of FC(F)(F)c1cc(-c2c(Br)cccc2Oc2ncc(Cl)cn2)no1 [Compound 170] , please.
result: 60

query: Need Kochia plant response rating, item Clc1cnc(Oc2ccccc2-c2cc(Cl)sn2)nc1 [Compound 192]
result: 80

query: Bench note: what Kochia plant response rating did FCc1cc(-c2c(Br)cccc2Oc2ncc(Cl)cn2)no1 [Compound 191] show?
result: 80

query: # Kochia plant response rating lookup, item Fc1cccc(Oc2ncc(Br)cn2)c1-c1cc(C(F)F)on1 [Compound 118]
result: 95

query: Given the entry Cc1cc(-c2ccccc2Oc2ncc(Cl)cn2)on1 [Compound 58] , report its measured Kochia plant response rating.
result: 50

###

System: spring barley (Hordeum vulgare)
Test: Test E pre-/postemergence plant response
Format: in vivo
Details: post-emergence, 31 g ai/ha, Postemergence, scale 0 to 100, read-out: Plant response rating, Barley, Spring
Please go through the items and note down their plant injury at 31 g/ha.
Unit % implied. Number only.

query: Lab note: need plant injury at 31 g/ha for FC(F)(F)c1cc(-c2ccccc2Oc2ncc(Cl)cn2)no1 on spring barley (Hordeum vulgare), anyone have it?
result: 15

query: Query for spring barley (Hordeum vulgare): what plant injury at 31 g/ha does the record show for Fc1cccc(Oc2ncc(Cl)cn2)c1-c1cc(C(F)F)no1 ?
result: 25

query: Kindly state the measured plant injury at 31 g/ha obtained for FC(F)c1cc(-c2ccccc2Oc2ncc(Cl)cn2)on1 with spring barley (Hordeum vulgare).
result: 5

query: For spring barley (Hordeum vulgare), provide plant injury at 31 g/ha of Fc1cccc(Oc2ncc(Cl)cn2)c1-c1cc(C(F)(F)F)on1 please.
result: 15

query: API: value(readout=plant injury at 31 g/ha, system=spring barley (Hordeum vulgare)) for record FC(F)c1cc(-c2ccccc2Oc2ncc(Cl)cn2)no1
result: 5

query: For spring barley (Hordeum vulgare), provide plant injury at 31 g/ha of FC(F)c1cc(-c2ccccc2Oc2ncc(Br)cn2)no1 please.
result: 15

###

Consider the following compounds; for each one, report its Plant response rating, Dayflower, VA.
System: dayflower (Virginia (VA) dayflower, Commelina virginica)
Assay: Test F pre-/postemergence plant response
Assay type: in vivo
Conditions: 16 g ai/ha Postemergence; scale 0 to 100
# print the numeric value only

query: Reported Plant response rating, Dayflower, VA, compound FC(F)c1cc(-c2ccccc2Oc2ncc(Br)cn2)on1 : ____
result: 30

query: What Plant response rating, Dayflower, VA value was documented for this compound, Cc1cc(-c2ccccc2Oc2ncc(Cl)cn2)on1 ?
result: 5

query: Would you kindly share the measured Plant response rating, Dayflower, VA for Fc1ccc(Oc2ncc(Cl)cn2)c(-c2cc(C(F)F)on2)c1Cl ?
result: 20

query: What does the data say about its Plant response rating, Dayflower, VA? Entry: CC(F)(F)c1cc(-c2ccccc2Oc2ncc(Br)cn2)no1
result: 10
